- assay_system: DnaA (Escherichia coli replication initiator DnaA) (Escherichia coli, UniProt P03004, F76Y)
- Construct: full-length, residues 1-467, 10X-histidine-tagged, recombinant from plasmid pZL411, Ni-NTA purified (SAXS samples also Sephacryl-300 gel filtration), ~52 kDa monomer
- Sequence (P03004 1-467 F76Y): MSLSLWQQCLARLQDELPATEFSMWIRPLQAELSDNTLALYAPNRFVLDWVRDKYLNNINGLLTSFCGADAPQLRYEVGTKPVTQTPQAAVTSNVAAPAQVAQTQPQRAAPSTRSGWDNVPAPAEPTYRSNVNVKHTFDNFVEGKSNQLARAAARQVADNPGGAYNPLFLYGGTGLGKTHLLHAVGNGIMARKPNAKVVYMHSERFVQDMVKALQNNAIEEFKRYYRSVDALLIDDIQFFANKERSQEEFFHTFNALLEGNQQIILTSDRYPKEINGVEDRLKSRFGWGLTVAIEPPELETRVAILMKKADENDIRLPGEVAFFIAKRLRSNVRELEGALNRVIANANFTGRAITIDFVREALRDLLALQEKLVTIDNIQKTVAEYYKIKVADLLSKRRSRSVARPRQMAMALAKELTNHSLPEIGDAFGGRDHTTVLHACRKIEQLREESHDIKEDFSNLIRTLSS
- assay_procedure: nitrocellulose filter retention assay
- stated_conditions: read-out: K D (ATP binding)
measured_property: pKd
Scale note: pKd = -log10(concentration in M).

Determine from records and report pKd for Nc1ncnc2c1ncn2[C@@H]1O[C@H](COP(=O)(O)OP(=O)(O)OP(=O)(O)O)[C@@H](O)[C@H]1O
6.85

----------
- assay_system: DnaA (Escherichia coli replication initiator DnaA) (Escherichia coli, UniProt P03004, H136Q)
- Construct: full-length, residues 1-467, 10X-histidine-tagged, recombinant from plasmid pZL411, Ni-NTA purified (SAXS samples also Sephacryl-300 gel filtration), ~52 kDa monomer
- Sequence (P03004 1-467 H136Q): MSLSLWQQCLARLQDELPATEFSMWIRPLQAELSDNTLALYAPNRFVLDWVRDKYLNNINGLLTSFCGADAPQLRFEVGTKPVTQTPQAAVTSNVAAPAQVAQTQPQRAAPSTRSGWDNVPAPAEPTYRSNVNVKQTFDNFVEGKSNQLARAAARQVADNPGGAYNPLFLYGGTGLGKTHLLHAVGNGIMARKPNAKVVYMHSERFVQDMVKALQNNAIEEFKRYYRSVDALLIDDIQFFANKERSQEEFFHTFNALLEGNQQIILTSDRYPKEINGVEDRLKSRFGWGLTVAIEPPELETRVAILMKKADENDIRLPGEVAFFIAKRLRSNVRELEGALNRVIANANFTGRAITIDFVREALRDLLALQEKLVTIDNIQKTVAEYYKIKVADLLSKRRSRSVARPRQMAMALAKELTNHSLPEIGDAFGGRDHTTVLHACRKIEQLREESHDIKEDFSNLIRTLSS
- assay_procedure: nitrocellulose filter retention assay
- stated_conditions: read-out: K D (ATP binding)
measured_property: pKd
Scale note: pKd = -log10(concentration in M).

Determine from records and report pKd for Nc1ncnc2c1ncn2[C@@H]1O[C@H](COP(=O)(O)OP(=O)(O)OP(=O)(O)O)[C@@H](O)[C@H]1O
7.00

----------
- assay_system: DnaA (Escherichia coli replication initiator DnaA) (Escherichia coli, UniProt P03004, Q156E)
- Construct: full-length, residues 1-467, 10X-histidine-tagged, recombinant from plasmid pZL411, Ni-NTA purified (SAXS samples also Sephacryl-300 gel filtration), ~52 kDa monomer
- assay_procedure: nitrocellulose filter retention assay
- stated_conditions: read-out: K D (ATP binding)
measured_property: Kd (µM)
Note: unit µM is implicit; provide only the numeric part.

Determine from records and report Kd for Nc1ncnc2c1ncn2[C@@H]1O[C@H](COP(=O)(O)OP(=O)(O)OP(=O)(O)O)[C@@H](O)[C@H]1O [ATP]
0.1

----------
- assay_system: DnaA (Escherichia coli replication initiator DnaA) (Escherichia coli, UniProt P03004, H136A)
- Construct: full-length, residues 1-467, 10X-histidine-tagged, recombinant from plasmid pZL411, Ni-NTA purified (SAXS samples also Sephacryl-300 gel filtration), ~52 kDa monomer
- assay_procedure: nitrocellulose filter retention assay
- stated_conditions: read-out: K D (ATP binding)
measured_property: Kd
Record the result as number plus unit.

Determine from records and report Kd for Nc1ncnc2c1ncn2[C@@H]1O[C@H](COP(=O)(O)OP(=O)(O)OP(=O)(O)O)[C@@H](O)[C@H]1O [ATP]
140 nM

----------
- assay_system: DnaA (Escherichia coli replication initiator DnaA) (Escherichia coli, UniProt P03004, Q156N)
- Construct: full-length, residues 1-467, 10X-histidine-tagged, recombinant from plasmid pZL411, Ni-NTA purified (SAXS samples also Sephacryl-300 gel filtration), ~52 kDa monomer
- Sequence (P03004 1-467 Q156N): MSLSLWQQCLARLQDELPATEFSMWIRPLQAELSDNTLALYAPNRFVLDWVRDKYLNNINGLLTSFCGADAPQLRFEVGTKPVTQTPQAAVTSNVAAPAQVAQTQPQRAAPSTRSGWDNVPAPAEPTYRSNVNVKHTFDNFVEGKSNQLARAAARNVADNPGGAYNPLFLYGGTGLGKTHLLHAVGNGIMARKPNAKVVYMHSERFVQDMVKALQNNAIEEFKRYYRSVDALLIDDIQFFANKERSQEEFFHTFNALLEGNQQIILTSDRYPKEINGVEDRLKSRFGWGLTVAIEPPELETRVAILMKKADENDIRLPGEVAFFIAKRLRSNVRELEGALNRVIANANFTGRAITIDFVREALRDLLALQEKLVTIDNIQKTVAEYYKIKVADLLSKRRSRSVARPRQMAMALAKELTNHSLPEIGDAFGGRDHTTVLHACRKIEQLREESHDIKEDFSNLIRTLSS
- assay_procedure: nitrocellulose filter retention assay
- stated_conditions: read-out: K D (ATP binding)
measured_property: pKd
Scale note: pKd = -log10(concentration in M).

Determine from records and report pKd for Nc1ncnc2c1ncn2[C@@H]1O[C@H](COP(=O)(O)OP(=O)(O)OP(=O)(O)O)[C@@H](O)[C@H]1O
7.00

----------
- assay_system: DnaA (Escherichia coli replication initiator DnaA) (Escherichia coli, UniProt P03004, F76A)
- Construct: full-length, residues 1-467, 10X-histidine-tagged, recombinant from plasmid pZL411, Ni-NTA purified (SAXS samples also Sephacryl-300 gel filtration), ~52 kDa monomer
- assay_procedure: nitrocellulose filter retention assay
- stated_conditions: read-out: K D (ATP binding)
measured_property: Kd
Record the result as number plus unit.

Determine from records and report Kd for Nc1ncnc2c1ncn2[C@@H]1O[C@H](COP(=O)(O)OP(=O)(O)OP(=O)(O)O)[C@@H](O)[C@H]1O [ATP]
120 nM

----------
- assay_system: DnaA (Escherichia coli replication initiator DnaA) (Escherichia coli, UniProt P03004)
- Construct: full-length, residues 1-467, 10X-histidine-tagged, recombinant from plasmid pZL411, Ni-NTA purified (SAXS samples also Sephacryl-300 gel filtration), ~52 kDa monomer
- assay_procedure: nitrocellulose filter retention assay
- stated_conditions: read-out: K D (ATP binding)
measured_property: pKd
Scale note: pKd = -log10(concentration in M).

Determine from records and report pKd for Nc1ncnc2c1ncn2[C@@H]1O[C@H](COP(=O)(O)OP(=O)(O)OP(=O)(O)O)[C@@H](O)[C@H]1O
6.96
